- Test details: Conversion of prodrug to parent drug in tissue homogenate
- Assay type: in vitro ADME
- Test context: mouse small intestine tissue homogenate
Readout kind: half-life

In: Which half-life value belongs to CC(C)NC(=O)c1cccc2nc(-c3cn(COP(=O)(O)O)c4c(F)c(F)c(F)cc34)ccc12 [Compound 13822] ?
Out: ~2 h

---

- Test details: Microsomal stability (half-life)
- Assay type: in vitro ADME, human
- Test context: human, microsomes; Table 6; read-out: Half-life
Readout kind: half-life
Quick note: unit goes after the number.

In: Which half-life value belongs to O=C(NC1CC1)c1cccc2nc(-c3c[nH]c4c(F)c(F)c(F)cc34)ccc12 ?
Out: 4.35 h

---
In: Which half-life value belongs to Fc1cc2c(-c3ccc4c(-c5cncs5)cccc4n3)c[nH]c2c(F)c1F ?
Out: 1.73 h

---

Hi there, I'd appreciate the recorded pIC50 for every entry that follows.
- Study system: androgen receptor (AR) transcriptional activity (Homo sapiens, UniProt P10275, T878A)
- Sequence (P10275 whole entry T878A): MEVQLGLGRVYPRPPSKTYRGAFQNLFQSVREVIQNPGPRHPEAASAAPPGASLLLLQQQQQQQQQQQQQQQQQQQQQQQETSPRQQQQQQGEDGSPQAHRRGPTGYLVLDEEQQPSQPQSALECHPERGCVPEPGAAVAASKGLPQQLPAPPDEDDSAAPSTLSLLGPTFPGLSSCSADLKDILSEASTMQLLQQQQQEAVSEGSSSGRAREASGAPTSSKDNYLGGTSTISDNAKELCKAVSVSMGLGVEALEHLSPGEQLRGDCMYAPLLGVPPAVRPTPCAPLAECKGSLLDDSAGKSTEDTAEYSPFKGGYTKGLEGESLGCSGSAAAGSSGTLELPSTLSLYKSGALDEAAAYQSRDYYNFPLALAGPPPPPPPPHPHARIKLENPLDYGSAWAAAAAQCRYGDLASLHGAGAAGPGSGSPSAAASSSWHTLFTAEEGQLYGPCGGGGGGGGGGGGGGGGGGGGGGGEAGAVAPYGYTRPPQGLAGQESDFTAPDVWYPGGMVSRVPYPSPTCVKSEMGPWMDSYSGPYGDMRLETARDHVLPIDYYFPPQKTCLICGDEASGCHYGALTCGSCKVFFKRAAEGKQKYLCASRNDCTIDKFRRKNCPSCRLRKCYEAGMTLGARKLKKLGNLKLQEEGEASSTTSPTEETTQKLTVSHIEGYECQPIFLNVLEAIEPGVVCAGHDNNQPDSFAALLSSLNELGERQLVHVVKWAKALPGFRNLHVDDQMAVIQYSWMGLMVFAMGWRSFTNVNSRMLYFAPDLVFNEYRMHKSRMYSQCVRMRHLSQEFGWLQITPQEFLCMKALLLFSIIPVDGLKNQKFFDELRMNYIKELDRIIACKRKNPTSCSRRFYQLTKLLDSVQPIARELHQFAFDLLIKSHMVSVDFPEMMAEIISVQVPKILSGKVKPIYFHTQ
- Test details: eGFP cellular AR transcription assay
One number for each entry, as −log10 of the molar value.

Worked examples follow.
In: Which pIC50 value belongs to OC(c1cccc2nc(-c3c[nH]c4c(F)c(F)c(F)cc34)ccc12)C(F)(F)F (centres unmarked) ?
Out: 4.49

In: Which pIC50 value belongs to Fc1cc2c(-c3ccc4c(-c5cncs5)c(F)ccc4n3)c[nH]c2c(F)c1F ?
Out: 6.25

In: Which pIC50 value belongs to CNC(=O)c1c(F)ccc2nc(-c3c[nH]c4c(F)c(F)c(F)cc34)ccc12 ?
Out: 5.26

---
In: Which pIC50 value belongs to O=C(NC1CC1)c1c(F)ccc2nc(-c3c[nH]c4c(F)c(F)c(F)cc34)ccc12 ?
Out: 5.70
